Where these numbers come from: patent US9150568B2

// reported log10 EC50 for each item listed
# Experimental system: human Farnesoid X Receptor (FXR) ligand binding domain (GST-FXR LBD) (Homo sapiens, UniProt Q96RI1)
# Construct: purchased Invitrogen
# Sequence (Q96RI1 193-472 isoform Q96RI1-2): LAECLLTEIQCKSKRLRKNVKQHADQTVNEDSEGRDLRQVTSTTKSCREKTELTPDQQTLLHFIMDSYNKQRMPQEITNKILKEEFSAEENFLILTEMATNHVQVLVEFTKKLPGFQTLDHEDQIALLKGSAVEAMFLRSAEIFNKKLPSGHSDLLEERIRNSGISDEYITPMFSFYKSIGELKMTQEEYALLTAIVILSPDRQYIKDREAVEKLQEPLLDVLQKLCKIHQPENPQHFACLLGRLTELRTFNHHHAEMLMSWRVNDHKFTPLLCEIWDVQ
# Test method notes: Human GST-FXR LBD co-activator interaction assay (HTRF)
# Type: biochemical
# Test settings: GST-FXR LBD / biotin-SRC-1 peptide FRET; response relative to GW4064; read-out: FXR Co-activator interaction assay (EC50)
# Source text: Human GST-FXR LBD Co-activator interaction Assay. The FXR HTRF assay is a biochemical assay measuring the interaction between FXR and a coactivator protein (SRC1). […] The ligand-dependent interaction between GST-FXR LBD and a peptide derived from Steroid Receptor Coactivator-1 (SRC-1) was monitored by Fluorescence Resonance Energy Transfer (FRET). […] A negative control (without Streptavidin-XL665) was run with each assay and represented the background fluorescence. […]
A difference of one corresponds to tenfold EC50; all values are log10 with EC50 in nM.

Example entries and their recorded answers appear below.
Qu. Would you mind telling me what log10 EC50 value was observed for O=C(O)c1cc(F)c2nc(N3C4CC[C@H]3CC(OCc3c(C5CCCCC56CC6)noc3C3CC3)C4)sc2c1 (some centres unmarked) ?
Ans. 0.30

Qu. Would you mind telling me what log10 EC50 value was observed for O=C(O)c1cc2nc(N3C4CC[C@H]3CC(OCc3c(-c5ccccc5OC(F)(F)F)noc3C3CC3)C4)ccn2n1 (some centres unmarked) ?
Ans. 0.30

Qu. Would you mind telling me what log10 EC50 value was observed for COc1cc(C(=O)O)cc2sc(N3C4CC[C@H]3CC(OCc3c(-c5c(F)cccc5Cl)noc3C3CC3)C4)nc12 (some centres unmarked) ?
Ans. -0.15

Qu. Would you mind telling me what log10 EC50 value was observed for O=C(O)c1nsc2cc(N3C4CC[C@H]3CC(OCc3c(-c5ccccc5OC(F)(F)F)noc3C3CC3)C4)c(F)cc12 (some centres unmarked) ?
Ans. -0.30

Others:
Qu. Would you mind telling me what log10 EC50 value was observed for O=C(O)c1ccc(N2C3CC[C@H]2CC(OCc2c(-c4cccnc4C(F)(F)F)noc2C2CC2)C3)nc1 (some centres unmarked) ?
Ans. 1.87

Qu. Would you mind telling me what log10 EC50 value was observed for COC(=O)c1ccc(N2C3CC[C@H]2CC(OCc2c(-c4ccccc4C(F)(F)F)noc2C2CC2)C3)c(F)c1 (some centres unmarked) ?
Ans. 2.45

Qu. Would you mind telling me what log10 EC50 value was observed for COC(=O)c1cccc(N2C3CC[C@H]2CC(OCc2c(-c4ccccc4OC(F)F)noc2C2CC2)C3)n1 (some centres unmarked) ?
Ans. 1.00

Qu. Would you mind telling me what log10 EC50 value was observed for COc1cc(C(=O)O)cc2sc(N3C4CC[C@H]3C[C@H](OCc3c(-c5ccccc5OC(F)F)noc3C3CC3)C4)nc12 ?
Ans. -0.74

Qu. Would you mind telling me what log10 EC50 value was observed for COC(=O)c1cc(C)nc(N2C3CC[C@H]2CC(OCc2c(-c4ccccc4C(F)(F)F)noc2C2CC2)C3)c1 (some centres unmarked) ?
Ans. 2.48

Qu. Would you mind telling me what log10 EC50 value was observed for O=C(O)c1ccc(N2C3CC[C@H]2CC(OCc2c(-c4ccccc4OC(F)(F)F)noc2C2CC2)C3)cc1 (some centres unmarked) ?
Ans. 0.23

Qu. Would you mind telling me what log10 EC50 value was observed for CC12CCCC1C2c1noc(C2CC2)c1COC1CC2CC[C@@H](C1)N2c1nc2c(F)cc(C(=O)O)cc2s1 (some centres unmarked) ?
Ans. 0.90

Qu. Would you mind telling me what log10 EC50 value was observed for Cc1nc(N2C3CC[C@H]2CC(OCc2c(-c4c(F)cccc4Cl)noc2C2CC2)C3)ccc1C(=O)O (some centres unmarked) ?
Ans. 1.41

Qu. Would you mind telling me what log10 EC50 value was observed for NC(=O)c1ccc(N2C3CC[C@H]2CC(OCc2c(-c4ccccc4OC(F)F)noc2C2CC2)C3)c(F)c1 (some centres unmarked) ?
Ans. 0.30

Qu. Would you mind telling me what log10 EC50 value was observed for Cc1cc(C(=O)O)nc(N2C3CC[C@H]2CC(OCc2c(-c4c(F)cccc4F)noc2C2CC2)C3)n1 (some centres unmarked) [Example 22-18B] ?
Ans. 1.26
